Biological target: GST-USP7 (human, UniProt Q93009-1 1-1102)
Sequence (Q93009 whole entry): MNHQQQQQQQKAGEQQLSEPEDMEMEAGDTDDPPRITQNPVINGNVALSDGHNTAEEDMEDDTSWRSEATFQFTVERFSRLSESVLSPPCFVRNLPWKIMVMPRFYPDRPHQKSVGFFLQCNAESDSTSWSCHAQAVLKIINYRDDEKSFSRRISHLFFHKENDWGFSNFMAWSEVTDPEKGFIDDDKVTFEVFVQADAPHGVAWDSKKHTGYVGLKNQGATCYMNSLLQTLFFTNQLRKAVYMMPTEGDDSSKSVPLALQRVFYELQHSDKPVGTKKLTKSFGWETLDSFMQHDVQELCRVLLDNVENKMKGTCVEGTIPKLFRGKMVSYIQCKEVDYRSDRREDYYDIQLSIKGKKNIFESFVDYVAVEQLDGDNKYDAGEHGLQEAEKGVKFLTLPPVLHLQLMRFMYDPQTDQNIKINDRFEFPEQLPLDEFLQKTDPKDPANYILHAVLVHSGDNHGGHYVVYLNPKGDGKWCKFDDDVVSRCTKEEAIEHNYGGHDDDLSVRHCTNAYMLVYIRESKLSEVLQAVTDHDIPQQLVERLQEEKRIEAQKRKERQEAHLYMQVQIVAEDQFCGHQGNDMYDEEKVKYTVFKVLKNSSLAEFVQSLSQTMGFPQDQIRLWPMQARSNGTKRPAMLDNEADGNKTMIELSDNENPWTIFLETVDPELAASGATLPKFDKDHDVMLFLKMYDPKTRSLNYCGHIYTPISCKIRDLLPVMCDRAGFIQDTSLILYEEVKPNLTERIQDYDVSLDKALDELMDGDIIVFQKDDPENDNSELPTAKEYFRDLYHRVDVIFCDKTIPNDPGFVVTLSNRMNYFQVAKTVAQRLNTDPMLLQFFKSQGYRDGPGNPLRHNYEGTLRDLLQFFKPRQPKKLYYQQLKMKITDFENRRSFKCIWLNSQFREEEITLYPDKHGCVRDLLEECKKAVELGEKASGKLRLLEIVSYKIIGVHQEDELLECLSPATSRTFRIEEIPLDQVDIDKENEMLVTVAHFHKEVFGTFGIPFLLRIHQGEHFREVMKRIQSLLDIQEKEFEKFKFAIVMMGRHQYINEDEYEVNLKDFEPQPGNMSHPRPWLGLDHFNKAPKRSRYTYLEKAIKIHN
Test: pull-down
measurement_name: binding result

1. FlagHis12-tagged mouse Mel18 (natural protein) MHRTTRIKITELNPHLMCALCGGYFIDATTIVECLHSFCKTCIVRYLETNKYCPMCDVQVHKTRPLLSIRSDKTLQDIVYKLVPGLFKDEMKRRRDFYAAYPLTEVPNGSNEDRGEVLEQEKGALGDDEIVSLSIEFYEGVRDREEKKNLTENGDGDKEKTGVRFLRCPAAMTVMHLAKFLRNKMDVPSKYKVEILYEDEPLKEYYTLMDIAYIYPWRRNGPLPLKYRVQPACKRLTLPTVPTPSEGTNTSGASECESVSDKAPSPATLPATSSSLPSPATPSHGSPSSHGPPATHPTSPTPPSTAAGTTTATNGGTSNCLQTPSSTSRGRKMTVNGAPCPP : binds
